System: OVCAR-5 ovarian
Assay Explanation: NCI tumour cell line growth inhibition, 48 h
Label scheme for TGI: lower than 30 µM is Not met, 30 µM and above is Met.

Check the entry NS(=O)(=O)c1ccc(N2N=C(c3cccs3)CC2c2ccccc2O)cc1 (stereo unspecified) : does TGI equal or exceed 30 µM?
Not met

Please indicate if the recorded TGI for "O=C1c2ccccc2C(=O)c2c(O)c(NCCNCCO)cc(O)c21" meets or exceeds 30 µM.
Not met

Reported TGI reaches at least 30 µM for "CC(=O)/C(=C(/Br)I)c1ccccc1" ?
Met

Exam item: decide whether the reported TGI for "Cc1ccc(S(=O)(=O)Nc2cc(Sc3ccccc3)c(O)c3ccccc23)cc1" is at least 30 µM.
Not met

Say whether CCCC(CCC)C(=O)OCC1(CO)C/C(=C\c2ccc(C(F)(F)F)cc2)C(=O)O1 (stereo unspecified) shows TGI of 30 µM or more.
Met

Test whether the molecule "O=C(O)c1cc(=O)c2cc(C(=O)c3cccs3)c(Cl)c(Cl)c2o1" records TGI of 30 µM or higher.
Met

Tell me whether TGI is at least 30 µM here: Cc1cccc(N=C2NC(=O)C(CC(=O)Nc3ccccc3Cl)S2)c1 (stereo unspecified)
Met

Determine whether this molecule has TGI no lower than 30 µM: COC1OC(C(C)O)C2OC(C)(C)OC12 (stereo unspecified)
Met

# check: TGI of "COc1ccc(OC)c(/C=N/N=C2\C(=O)Nc3c(Cl)cc(Cl)cc32)c1" is greater than or equal to 30 µM
Met

Is the recorded value of TGI equal to or greater than 30 µM for this molecule? "NCCCCCNOCCCN"
Met

Decide: TGI of "COc1cccc(C(=O)N[C@@H]2[C@H](O)[C@@H](CO)O[C@H]2n2cnc3c(N)ncnc32)c1" >= 30 µM?
Met

###

Tested on: SW-620 colon
Please answer using one outcome listed in t (active), f (inactive)

Query: recorded result category for "Cc1ccccc1NC(=O)c1cc2ccccc2cc1O" in this test
f

Hi team, can someone confirm the assay call for "O=c1[nH]nc(-c2ccccc2)c2c(-c3ccccc3)onc12" ?
t

Called result for O=CN1N=C(c2ccc(Nc3ccnc4cc(Cl)ccc34)cc2)CC1c1ccc(Cl)cc1 (stereo not drawn)
f

What is the recorded call for this compound in the test? "Nc1ccccc1C#C/C=C\C#Cc1ccccc1F"
f

Any idea what this test logged for "Cc1ccc(-c2c3c(N)c4c(nc3nc3c2c(C)nn3-c2ccccc2)CCC4)cc1" ?
f

Outcome? "CN(C)N=Nc1nn(C(=O)Nc2ccc(Cc3ccccc3)cc2)c2ccccc12"
t

Which outcome was entered for the compound "CC1=NN(C(=O)c2nn(-c3ccc(Cl)cc3)cc2O)C(=O)C1" in this test?
f

GET /call?item= "CCC(=O)c1c(C(F)(F)F)n([O-])c2ccccc2[n+]1=O" returns the recorded outcome of this test.
f

Kindly provide the recorded test outcome for the following compound: CCCC(CCC)C(=O)OCC1(CO)C/C(=C\c2ccc(C(F)(F)F)cc2)C(=O)O1 (stereo not drawn)
f

Test call, this compound: "Cc1cc(Cl)ccc1Nc1nc(C(F)(F)F)ccc1C(=O)Nc1cccc(C(F)(F)F)c1"
f

What outcome does the record of this test show for "CCc1c2c(nc3ccc(OCc4ccc(B5OC(C)(C)C(C)(C)O5)cc4)cc13)-c1cc3c(c(=O)n1C2)COC(=O)[C@]3(O)CC" ?
t

Call for entry "CN(CCCN(C)CCC1CCCCC1)CCC1CCCCC1" :
f

How was "C=C1C(=O)O[C@H]2[C@H]1CC/C(CNC(=O)/C=C/c1ccc(Cl)cc1Cl)=C\CC[C@@]1(C)O[C@@H]21" classified in this test?
f
